System: MS2 coat protein
experimentDescription: apparent KD of MS2 coat protein; designed switch direction (-1 OFF switch, 1 ON switch): -1; higher = weaker reporter binding
details: input ligand: none
Label not met if apparent KD of MS2 coat protein falls below 0.2 µM; label met in every other case.

Take a look at these entries with their results.
>  <sequenceCode>
ACGUCCUUGGUAAGGAUAUCGAUGGAGGCGAUCCACGAGAAGGUACAUGAGGAUCACCCAUGUAUACGAAUACG [Eternabot (L1) Solution 94] (Eterna round: R97, puzzle: Brourd's mod of Exclusion 4)

>  <assignedClass>
not met

$$$$
>  <sequenceCode>
GGUAGCUGAGGAUAUGCAGACGACCCUCAGUGCUGGCUUGCACAUGAGGAUCACCCAUGUAGAAGGCAGAAGCU [Eternabot (L2) Solution 5] (Eterna round: R97, puzzle: Exclusion 2)

>  <assignedClass>
not met

$$$$
>  <sequenceCode>
AGCUGUGGCCGAGGAUAUCUACAUGAGGAUCACCCAUGUAAAGGGUGUAUCGGGAAAACCUCGAUGGAGAAGGCGGUCUCAGCA [Eli eng2 - 047] (Eterna round: R96, puzzle: Exclusion NG 2)

>  <assignedClass>
met

$$$$

-- ask Kindly determine if apparent KD of MS2 coat protein recorded for UAGAUACAUGAGGAUCACCCAUGUGAGGAUAUGAGGGUUAGCUUAAAUGGGCUGACUUUCAGAAGGCACAAGAA [JR_Ex1_Sub057] (Eterna round: R97, puzzle: Exclusion 1) is above or exactly 0.2 µM.
-- reply not met

###

Tested on: K4 kissing-loop RNA reporter;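 further: bound reporter read as fluorescence of individual clusters on recovered sequencing chips by microscopy, with normalized cluster intensities fitted with a binding model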
experimentDescription: apparent KD of K4 kissing-loop reporter; higher = weaker reporter binding
details: Eterna round: R107; input ligand: tryptophan 2.4 mM
experimentalEndpoint: apparent KD of K4 kissing-loop reporter

Observe how each entry below is paired with its result.
>  <sequenceCode>
AAAGAUGCGUCGGCCGCCACUGUGAUCUACGAAAGUAGUAUGUAGAUGCAGUGAUGUUGCAUUUUCAGGACCGGGACGUAAGAUG [3rd]

>  <valueReported>
0.211 µM

$$$$
>  <sequenceCode>
AUGGGUCCACGAAGGAGCGCCGUGCAGUGAUGUUGCAGUUAGAUCCAGUGAUGUUUGGGCCGGCAGGUAGGUCGCGUGGAUUUAU [Exclusion Arginine B GF 22]

>  <valueReported>
0.222 µM

$$$$
>  <sequenceCode>
UGGAUAUAGUGAUGUUAUAUAGAGAUGGAUACCAGCUAAGAGAAUAGCCCUUGGCAGCCGAAAGAAGUAUCAUUAGAGAAGAAUG [ExTheophyl.Ae]

>  <valueReported>
0.212 µM

$$$$
>  <sequenceCode>
UGAUACCAGACGGCCGCCACUACACCAGUCAAAGACUGGAUGUGAAAUUCGACCAGUGAUGUUGGUAGGACCGGGUCUGGUAUCU [TrypBX 8 #SwitchBubble #StaticStem]

>  <valueReported>
0.591 µM

$$$$
>  <sequenceCode>
UGAUAGGACAGAAGGAGCGGGAGUGAUGUUCCCAAAAGGGUAAGGUGUCAAAAGACACCCUUCCAGGUAGGUCGCUGUCCUAUCU

>  <valueReported>
0.0839 µM

$$$$
>  <sequenceCode>
AGUGUUUGGUUAGAUACCAGCCGUCUGUGGAUAAUCCUCAGACCGCCAGUGAUGUUGGCAGGCCCUUGGCAGCUAACAGGACAGA [Ersoed]

>  <valueReported>
0.224 µM

$$$$

-- ask Recall the recorded apparent KD of K4 kissing-loop reporter for AAAUUUUCAAGUGAUACCAGACAUUUUUAUUUCUUUAUUUAUGCUAAGUGAUGUUUAGCAGUCCCUUGGCAGCACUAUUUAAUUA [JR_Nu_SSTheophyB_Sub030] with K4 kissing-loop RNA reporter and state it.
-- reply 0.144 µM

-- ask Recall the recorded apparent KD of K4 kissing-loop reporter for GUCUGUGUACUAGGAUAUGGUUGCAGACAGUCAGGUCGCCUUUUCGGCGGCCAGUGAUGUUGGUGGCCAGAAGGAGUACGUGAAG [Biririge] with K4 kissing-loop RNA reporter and state it.
-- reply 1.48 µM

-- ask Recall the recorded apparent KD of K4 kissing-loop reporter for UCGUUAAAAGCGGCCGCCACUGCCAGAGCUCUGGAAAAGGCUGGAGUGAUGUUCUGCCUAGUAGACAGGACCGGGCUAUUGGAUU [theeternabot_sameState_KL_Trp_B_29] with K4 kissing-loop RNA reporter and state it.
-- reply 0.594 µM

-- ask Recall the recorded apparent KD of K4 kissing-loop reporter for GAUCUGAACGAAAGUUCGGAUCAGUCCGAUACCAGUAUGGAUUCAUACCCUUGGCAGCGGUUAUCUGCUAUGGAGUGAUGUUCCA [Theophylline A K4 11] with K4 kissing-loop RNA reporter and state it.
-- reply 0.348 µM

-- ask Recall the recorded apparent KD of K4 kissing-loop reporter for "CCGCUACCCUCAGGAUAUUAAUAUGGAGUGAUGUUCUAUGUCCGAUGGCGGAAACGCCAUCGGGAAUAAGAAGGGAGGGUAGCGG" with K4 kissing-loop RNA reporter and state it.
-- reply 0.329 µM

-- ask Recall the recorded apparent KD of K4 kissing-loop reporter for GUUAAUAGUAGUGAUGUUACAAUAGUUUGUGAGGAUAUCCCGAAAGGGAGAAGGCACAAACAAAUAGAUUCUCACAAAUAUUUAC [FMN A exclusion] with K4 kissing-loop RNA reporter and state it.
-- reply 0.146 µM

-- ask Recall the recorded apparent KD of K4 kissing-loop reporter for GGAUAGGACAGAGGAUAUCUCUGAGGCAAGAAAACUUGUCUCUAAAGAGAUGACUCAGUGAUGUUGGGAGAAGGCUGUCCUAUCG [FmnBX 10 - #SwitchBubble #StaticStem] with K4 kissing-loop RNA reporter and state it.
-- reply 0.125 µM

-- ask Recall the recorded apparent KD of K4 kissing-loop reporter for AAAAUUGCGGUCGAUAGAACUUUUUGCUUACGAGGACCGGUACGGCCGCCACUCGAGUCAAGUGAUGUUUGAUUUUCUAUUAUUA [JR_ExcTryptoA_Sub014] with K4 kissing-loop RNA reporter and state it.
-- reply 0.0985 µM

-- ask Recall the recorded apparent KD of K4 kissing-loop reporter for AUGUCUUAUAAACUCAUGGUUUCGAUCGAUACCAGUAGCGAGAGUUACCCUUGGCAGCGACAUGAGUGAUGUUCAUGUACGAAGA [KL-XTheoA5] with K4 kissing-loop RNA reporter and state it.
-- reply 0.09 µM

-- ask Recall the recorded apparent KD of K4 kissing-loop reporter for GGAUGCAUAGUAGAUACCAGCAAGCUCGGAUAGUGAUGUUGUUCGCAGUCAUUUCGGUAGUGCCCUUGGCAGCUAGACGCCCGAU [theeternabot_exclusion_KL_Theo_B_36] with K4 kissing-loop RNA reporter and state it.
-- reply 0.0975 µM

-- ask Recall the recorded apparent KD of K4 kissing-loop reporter for AAGUCAUAGGCAGGAUAUGCUUAGUAUUAAGGCCAUAUAUACGUAUAGAGUGAUGUUUUGUACCAGGCAGAAGGGCUACAUCAGU [FMN B Excl V6 (+A)] with K4 kissing-loop RNA reporter and state it.
-- reply 0.536 µM

-- ask Recall the recorded apparent KD of K4 kissing-loop reporter for UUGAGCCGGACGGAAGUCCGGCUCUGCGAGCGAGGACCGGUACGGCCGCCACUCGGUGCAGUGAUGUUGCAUGGCCGCAAGGCCG [#2 Exclusion - Tryptophan A Attempt #4 (HarryS)] with K4 kissing-loop RNA reporter and state it.
-- reply 0.324 µM

-- ask Recall the recorded apparent KD of K4 kissing-loop reporter for GCUAUGGUUGGAAGGAGCGUUGAAUUGUUGGUAAGAGUGAUGUUCGAUAGUGGAUAGUUGUAGCAGGUAGGUCGCCAACUAUAGC [KL-Arg B27] with K4 kissing-loop RNA reporter and state it.
-- reply 0.395 µM

-- ask Recall the recorded apparent KD of K4 kissing-loop reporter for CUCGAGUGAUGUUCGAUUAUUUAUACAGAUACCAGUGAAUUUUAACACCCUUGGCAGCUGGUAGUAUCGUUGUAAUUUACACAAG [JR_ExcTheophyA_Sub004] with K4 kissing-loop RNA reporter and state it.
-- reply 0.0879 µM

-- ask Recall the recorded apparent KD of K4 kissing-loop reporter for UGUACCGAGUCAGGAUAUCAUAAUAAAUCCAGUGAUGUUGGAAUAACCAGUACAAAGUACUGGCCUUGAGAAGGGACUUGGUACU [FmnBS 3 #SwitchBubble #StaticStem] with K4 kissing-loop RNA reporter and state it.
-- reply 0.147 µM

-- ask Recall the recorded apparent KD of K4 kissing-loop reporter for UAGGAGUGAUGUUCCAUAUGUAAGGCCGAAGGAGCGGCAUUAUAGCCAGGUAGGUCGCGGCAGUACGUACCAGUGAUGUUGGAAA [KL-SSArg-A5] with K4 kissing-loop RNA reporter and state it.
-- reply 0.116 µM

-- ask Recall the recorded apparent KD of K4 kissing-loop reporter for CUUCGAUUAACAGAUACCAGUCACUUGGGAGCCACACACAAGUGAGUGAUGUUCACUUGUGACCCUUGGCAGCUGUUAGUCGAAG [#04 K4 Theophylline B Exclusion] with K4 kissing-loop RNA reporter and state it.
-- reply 0.103 µM
